Numbers sourced from the EternaBench riboswitch data.

Measured apparent Kd values are reported for all entries that follow.
- System: MS2 coat protein
- Assay Method Text: apparent Kd, MS2 coat protein; higher = weaker binding; RNA-MaP array; FMN 200 µM where present
- Assay Setup: ligand present: flavin mononucleotide; designed as: ON switch for flavin mononucleotide
Result Type: apparent Kd (nM)

[[record]]
macromolecule_sequence = "UUACUCAUGUAAGGAUAUGCAGCCGAAACGGCUGUAGAAGGUACUAAAAUACAUGAGGAUCACCCAUGUCUUUUUAAUUUAGAC"
observed_measurement = 74.6

[[record]]
macromolecule_sequence = "UUACAUACAAAGGUACAUGAGGAUCACCCAUGUUUGUUGGGAAGAAGGGUAACAGUACUACAUAUAUAGGAUAUUUCACAAAUA"
observed_measurement = 86.6

[[record]]
macromolecule_sequence = "UAGUGCGUUAGAGGAUAUUCUAAAUAAAAUAAUAAGACAUGAGGAUCACCCAUGUAUGUACAUGGGAAGAAGGCUGAUGUGCUA"
observed_measurement = 42.9

[[record]]
macromolecule_sequence = "AGACCGUUCGAGAAGGUGCGAGAGAAAUGUGAGUGAGGAUAUUGAAACAUGAGGAUCACCCAUGUCAUGAGGAUCGCCGAUGUG"
observed_measurement = 31.6

[[record]]
macromolecule_sequence = "UGGUACUAGGGAGGAUAUGGGAAGAUACAUGAGGAUCACCCAUGUUUAAGAAUGCCGAGAGGCAAUUAGAAGGCCCUAGUACCU"
observed_measurement = 148

[[record]]
macromolecule_sequence = "GUAGCAUACCGAGGAUAUUCAUAUCGGAAACGAACAUGAGGAUCACCCAUGUGGCGAAAGCCUUGGGAGAAGGCGGAAUGCUAC"
observed_measurement = 24.5

[[record]]
macromolecule_sequence = "AGAAAACAUGAGGAUCACCCAUGUAGAAAUAUGGGAGGAUAUACAAAGACGAAAGUCAAGGUAGAAGGCCUAAAGA"
observed_measurement = 27.4


----------
Measured apparent Kd values are reported for all entries that follow.
- Tested on: MS2 coat protein
- Assay Method Text: apparent Kd, MS2 coat protein; higher = weaker binding; RNA-MaP array; FMN 200 µM where present
- Assay Setup: designed as: OFF switch for flavin mononucleotide; no ligand
Result Type: apparent Kd (nM)

[[record]]
macromolecule_sequence = "GCCUCACAUGAGGAUCACCCAUGUCAGGAUAUAGGAGACGGUAGCUUUGCUGCCAUCGCUAGAAGGGACUGGCU"
observed_measurement = 68.2

[[record]]
macromolecule_sequence = "CAUAGUAAUUAGGAUAUCUGCCGGCUGAACCGAGGAGAAGGGAUUACAUGAGGAUCACCCAUGUGGUCCUAAGA"
observed_measurement = 17

[[record]]
macromolecule_sequence = "AUCAUGUAAGGAUAUCUUACAUGUGACUUCGGUCACUGUUCAGAGAAGGUACAUGAGGAUCACCCAUGUAGAAC"
observed_measurement = 18.8

[[record]]
macromolecule_sequence = "GGAUGACAUAGUCAUCUUUAACGAACAUGAGGAUCACCCAUGUAGGAUAUGCUACUCAACGAGUAGCAGAAGGACAUGUGUCUU"
observed_measurement = 25.9

[[record]]
macromolecule_sequence = "UAGGGCGAGUUAUGUACAAGAUACAUGAGGAUCACCCAUGUGUAGGAUAUGACCCUCAUCGCUGGUCAGAAGGGCACGAGAAUC"
observed_measurement = 234

[[record]]
macromolecule_sequence = "UGUGUGUGACAGGAUAUGCUGGUUGUGAGACGGGUAGAAGGGUCUACAUGAGGAUCACCCAUGUGGCCGGUUGG"
observed_measurement = 23.1

[[record]]
macromolecule_sequence = "GGCGACCUAGGAUAUACAUGAGGAUCACCCAUGUUUAUCUAUUAGAUGAAGACGGGUUGUAGAAGGAGGAUAUU"
observed_measurement = 15.5

